These measurements were taken from ChEMBL document CHEMBL5352388.

Target: Voltage-gated inwardly rectifying potassium channel KCNH2 (Homo sapiens, UniProt Q12809)
Sequence (Q12809 whole entry): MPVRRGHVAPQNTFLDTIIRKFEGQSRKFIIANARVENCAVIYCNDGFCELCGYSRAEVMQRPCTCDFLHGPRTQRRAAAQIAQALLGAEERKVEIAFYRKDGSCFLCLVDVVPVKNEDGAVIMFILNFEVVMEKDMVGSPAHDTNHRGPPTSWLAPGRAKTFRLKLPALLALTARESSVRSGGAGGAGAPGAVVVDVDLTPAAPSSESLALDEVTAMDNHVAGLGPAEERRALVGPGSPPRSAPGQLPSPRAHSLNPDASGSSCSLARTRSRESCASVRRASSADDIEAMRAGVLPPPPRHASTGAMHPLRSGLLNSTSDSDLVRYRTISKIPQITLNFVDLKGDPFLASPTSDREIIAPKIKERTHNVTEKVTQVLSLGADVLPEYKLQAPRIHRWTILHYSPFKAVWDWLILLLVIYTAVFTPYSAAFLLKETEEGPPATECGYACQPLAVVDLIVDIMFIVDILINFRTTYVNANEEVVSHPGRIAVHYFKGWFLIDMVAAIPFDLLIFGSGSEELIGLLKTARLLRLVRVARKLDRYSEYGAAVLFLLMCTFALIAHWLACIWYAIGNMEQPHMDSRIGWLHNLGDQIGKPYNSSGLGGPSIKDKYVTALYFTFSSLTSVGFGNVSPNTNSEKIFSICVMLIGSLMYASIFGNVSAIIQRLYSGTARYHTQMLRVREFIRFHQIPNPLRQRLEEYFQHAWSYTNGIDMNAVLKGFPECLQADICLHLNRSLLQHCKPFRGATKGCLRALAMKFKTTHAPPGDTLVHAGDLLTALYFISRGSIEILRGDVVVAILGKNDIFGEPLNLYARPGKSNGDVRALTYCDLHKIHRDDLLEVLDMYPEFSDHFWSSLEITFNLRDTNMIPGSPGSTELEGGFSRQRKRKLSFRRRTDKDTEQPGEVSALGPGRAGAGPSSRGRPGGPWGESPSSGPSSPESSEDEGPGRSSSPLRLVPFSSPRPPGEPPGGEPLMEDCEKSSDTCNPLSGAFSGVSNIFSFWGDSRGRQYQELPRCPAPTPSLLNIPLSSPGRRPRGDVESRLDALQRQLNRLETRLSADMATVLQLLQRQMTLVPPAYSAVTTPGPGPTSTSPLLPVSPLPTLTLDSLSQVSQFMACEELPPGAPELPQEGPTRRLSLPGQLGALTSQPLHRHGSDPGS
Experiment: Inhibition of human ERG stably expressed in CHO cells by patch clamp assay
Measured pIC50 of individual entries
pIC50 (log units): -log10 of the concentration in mol/L.

smilesText	measuredOn	pIC50
Cc1ccc(-c2cc3c(cc2-c2ccc(C#N)cc2)c(C(=O)N2CCC(N)CC2)cn3S(=O)(=O)c2ccc(F)cc2)cc1	Voltage-gated inwardly rectifying potassium channel KCNH2 (Homo sapiens, UniProt Q12809)	5.29

In the following, a different compound is considered.
Please give the measured pIC50 for this compound: "Cc1ccc(-c2cc3occ(CN4CCC[C@H](N)C4)c3cc2-c2ccc(C#N)cc2)cc1"
5.22
